Field: pEC50. Provide a value for each of the molecules that follow.
Molecular target: human APJ receptor (Homo sapiens, UniProt P35414)
Construct: expressed in transfected cells
Sequence (P35414 1-380): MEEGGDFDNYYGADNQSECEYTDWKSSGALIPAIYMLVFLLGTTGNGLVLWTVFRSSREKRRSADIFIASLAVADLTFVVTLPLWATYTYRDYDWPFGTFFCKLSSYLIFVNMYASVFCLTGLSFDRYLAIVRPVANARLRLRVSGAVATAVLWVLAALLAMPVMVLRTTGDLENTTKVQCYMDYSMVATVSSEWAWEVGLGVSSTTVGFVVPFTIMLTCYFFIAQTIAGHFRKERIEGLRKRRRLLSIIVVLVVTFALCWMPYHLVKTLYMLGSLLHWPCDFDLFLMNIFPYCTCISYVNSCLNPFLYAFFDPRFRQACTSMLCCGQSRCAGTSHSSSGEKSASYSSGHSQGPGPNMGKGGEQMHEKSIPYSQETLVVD
Experiment: [35S] GTPγS assay, human APJ receptor
Assay type: biochemical
Conditions: human APJ receptor
Non-standard residues stand in square brackets, D forms with d. Residues, ends and D or L forms follow the SMILES beside them. Oic = O=C(O)[C@@H]1C[C@@H]2CCCC[C@@H]2N1; Phe(4-Cl) = N[C@@H](Cc1ccc(Cl)cc1)C(=O)O; NMeR = CN[C@@H](CCCNC(=N)N)C(=O)O; hArg = N=C(N)NCCCC[C@H](N)C(=O)O; Cha = N[C@@H](CC1CCCCC1)C(=O)O; αMeP = C[C@@]1(C(=O)O)CCCN1; Nle = CCCC[C@H](N)C(=O)O; Aib = CC(C)(N)C(=O)O
In simple prose, pEC50 is minus the logarithm base ten of a concentration in moles per litre.

# return recorded pEC50 for entry CCCC[C@H](NC(=O)[C@]1(C)CCCN1C(=O)CNC(=O)[C@H](CCCCN)NC(=O)[C@H](Cc1c[nH]cn1)NC(=O)[C@H](CO)NC(=O)[C@H](CC1CCCCC1)NC(=O)[C@H](CCCNC(=N)N)N(C)C(=O)[C@@H]1CCCN1C(=O)[C@H](CCCNC(=N)N)NC(=O)[C@@H](CCC(N)=O)NC(C)=O)C(=O)NC(C)(C)C(=O)N[C@@H](Cc1ccc(Cl)cc1)C(=O)O [compound 93] (Ac-[dQ]RP[NMeR][Cha]SHKG[αMeP][Nle][Aib][Phe(4-Cl)]-OH) 9.64

# return recorded pEC50 for entry CCCC[C@H](NC(=O)[C@@H]1C[C@@H]2CCCC[C@@H]2N1C(=O)CNC(=O)[C@H](CCCCN)NC(=O)[C@H](Cc1c[nH]cn1)NC(=O)[C@H](CO)NC(=O)[C@H](CC1CCCCC1)NC(=O)[C@H](CCCNC(=N)N)N(C)C(=O)[C@@H]1CCCN1C(=O)[C@H](CCCCNC(=N)N)NC(=O)[C@H](CCC(N)=O)NC(C)=O)C(=O)N1CCC[C@H]1C(=O)N[C@@H](Cc1ccc(Cl)cc1)C(=O)O [compound 61] (Ac-Q[hArg]P[NMeR][Cha]SHKG[Oic][Nle]P[Phe(4-Cl)]-OH) 9.80

====

assay: In vitro stability in rat plasma; type: in vitro ADME
Field: remaining at 4 h, 5 μM. Provide a value for each of the compounds that follow.
Just the number please, in %, no unit attached.

# return recorded remaining at 4 h, 5 μM for entry CCCC[C@H](NC(=O)[C@@H]1CCCN1C(=O)CNC(=O)[C@H](CCCCN)NC(=O)[C@H](Cc1c[nH]cn1)NC(=O)[C@H](CO)NC(=O)[C@](C)(CC(C)C)NC(=O)[C@H](CCCCNC(=N)N)NC(=O)[C@@H]1CCCN1C(=O)[C@@H](CCCNC(=N)N)NC(=O)[C@H](CCC(N)=O)NC(C)=O)C(=O)N1CCC[C@H]1C(=O)N[C@@H](Cc1ccc(Cl)cc1)C(=O)O 86.1

# return recorded remaining at 4 h, 5 μM for entry CCCCCCCCCCCCCCCCC(=O)N[C@@H](CCC(=O)NCCOCCOCC(=O)NCCOCCOCC(=O)N[C@@H](CCC(N)=O)C(=O)N[C@@H](CCCNC(=N)N)C(=O)N1CCC[C@H]1C(=O)N(C)[C@@H](CCCNC(=N)N)C(=O)N[C@@H](CC(C)C)C(=O)N[C@@H](CO)C(=O)N[C@@H](Cc1c[nH]cn1)C(=O)N[C@@H](CCCCN)C(=O)NCC(=O)N1CCC[C@H]1C(=O)N[C@@H](CCCC)C(=O)N1CCC[C@H]1C(=O)N[C@@H](Cc1ccc(Cl)cc1)C(=O)O)C(=O)O 86

====

test: In vitro stability in rat plasma; assay type: in vitro ADME
Non-standard residues stand in square brackets, D forms with d. Residues, ends and D or L forms follow the SMILES beside them. dBip = N[C@H](Cc1ccc(-c2ccccc2)cc1)C(=O)O; Oic = O=C(O)[C@@H]1C[C@@H]2CCCC[C@@H]2N1; Phe(4-Cl) = N[C@@H](Cc1ccc(Cl)cc1)C(=O)O; NMeR = CN[C@@H](CCCNC(=N)N)C(=O)O; hArg = N=C(N)NCCCC[C@H](N)C(=O)O; Cha = N[C@@H](CC1CCCCC1)C(=O)O; Nle = CCCC[C@H](N)C(=O)O
Readout type: remaining at 4 h, 5 μM (%)
Just the number please, in %, no unit attached.

# return recorded remaining at 4 h, 5 μM for entry CCCC[C@H](NC(=O)[C@@H]1C[C@@H]2CCCC[C@@H]2N1C(=O)CNC(=O)[C@H](CCCCN)NC(=O)[C@H](Cc1c[nH]cn1)NC(=O)[C@H](CO)NC(=O)[C@H](CC1CCCCC1)NC(=O)[C@H](CCCNC(=N)N)N(C)C(=O)[C@@H]1CCCN1C(=O)[C@H](CCCCNC(=N)N)NC(=O)[C@H](CCC(N)=O)NC(C)=O)C(=O)N1CCC[C@H]1C(=O)N[C@@H](Cc1ccc(Cl)cc1)C(=O)O [compound 61] (Ac-Q[hArg]P[NMeR][Cha]SHKG[Oic][Nle]P[Phe(4-Cl)]-OH) 27.9

# return recorded remaining at 4 h, 5 μM for entry CCCC[C@H](NC(=O)[C@@H]1CCCN1C(=O)CNC(=O)[C@H](CCCCN)NC(=O)[C@H](Cc1c[nH]cn1)NC(=O)[C@H](CO)NC(=O)[C@H](CC(C)C)NC(=O)[C@H](CCCNC(=N)N)NC(=O)[C@@H]1CCCN1C(=O)[C@H](CCCNC(=N)N)NC(=O)[C@H](CCC(N)=O)NC(=O)[C@H](CCCNC(=N)N)NC(C)=O)C(=O)N1CCC[C@H]1C(=O)N[C@H](Cc1ccc(-c2ccccc2)cc1)C(=O)O [compound 62] (Ac-RQRPRLSHKGP[Nle]P[dBip]-OH) 6.3

====

Field: pEC50. Provide a value for each of the compounds that follow.
Target: rat APJ receptor (Rattus norvegicus, UniProt Q9JHG3)
Construct: expressed in transfected cells
Sequence (Q9JHG3 1-377): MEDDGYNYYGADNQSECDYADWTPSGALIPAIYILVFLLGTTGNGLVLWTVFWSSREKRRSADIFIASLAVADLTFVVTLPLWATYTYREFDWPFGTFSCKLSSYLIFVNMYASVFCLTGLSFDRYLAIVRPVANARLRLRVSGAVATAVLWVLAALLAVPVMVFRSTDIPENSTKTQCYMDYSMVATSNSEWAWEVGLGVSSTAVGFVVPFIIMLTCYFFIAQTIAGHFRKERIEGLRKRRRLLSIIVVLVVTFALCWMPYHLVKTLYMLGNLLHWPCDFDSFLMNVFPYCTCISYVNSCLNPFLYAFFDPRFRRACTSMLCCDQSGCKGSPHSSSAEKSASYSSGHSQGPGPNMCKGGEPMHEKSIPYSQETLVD
Experiment: [35S] GTPγS assay, rat APJ receptor
Format: biochemical
Conditions: rat APJ receptor, read-out: EC50 Rat APJ Receptor
Description: The membranes were incubated with modified peptides in the assay buffer. […] Bound [^35S] GTPγS was separated from free radiolabel by filtration. The filter bound radioactivity was determined by liquid scintillation counting.
In simple prose, pEC50 is minus the logarithm base ten of a concentration in moles per litre.

# return recorded pEC50 for entry CCCCCCCCCC(=O)N[C@@H](CCC(=O)NCCOCCOCC(=O)NCCOCCOCC(=O)N[C@@H](CCC(N)=O)C(=O)N[C@@H](CCCNC(=N)N)C(=O)N1CCC[C@H]1C(=O)N(C)[C@@H](CCCNC(=N)N)C(=O)N[C@@H](CC(C)C)C(=O)N[C@@H](CO)C(=O)N[C@@H](Cc1c[nH]cn1)C(=O)N[C@@H](CCCCN)C(=O)NCC(=O)N1CCC[C@H]1C(=O)N[C@@H](CCCC)C(=O)N1CCC[C@H]1C(=O)N[C@@H](Cc1ccc(Cl)cc1)C(=O)O)C(=O)O 9.83

# return recorded pEC50 for entry CCCCCCCCCCCCC(=O)N[C@@H](CCC(=O)NCCOCCOCC(=O)NCCOCCOCC(=O)NCCOCCOCC(=O)NCCOCCOCC(=O)NCCOCCOCC(=O)NCCOCCOCC(=O)N[C@@H](CCC(N)=O)C(=O)N[C@@H](CCCNC(=N)N)C(=O)N1CCC[C@H]1C(=O)N(C)[C@@H](CCCNC(=N)N)C(=O)N[C@@H](CC(C)C)C(=O)N[C@@H](CO)C(=O)N[C@@H](Cc1c[nH]cn1)C(=O)N[C@@H](CCCCN)C(=O)NCC(=O)N1CCC[C@H]1C(=O)N[C@@H](CCCC)C(=O)N1CCC[C@H]1C(=O)N[C@@H](Cc1ccc(Cl)cc1)C(=O)O)C(=O)O 9.93

Taken from patent US11807693B2.
